assay: physchem; conditions: pH 6.8, aqueous buffer, kinetic from dmso stock, Solubility (pH 6.8)
Tag: 1 (yes) if measured solubility at 24 h is not below 60 µg/mL, 0 (no) if it is.

Observe how each entry below is paired with its result.
>>> label("Cc1ccc(OCc2cc(C)c3c(c2)CCN(C2CCOC2)C3)c(-c2csc(N3CC[C@@]4(C(=O)O)C[C@H]4C3)n2)c1 (mixture of isomers) [Compound 122]")
"0 (no)"
>>> label("CCc1cc(COc2c(C)cccc2-c2cccc(N3C[C@@H]4C[C@]4(C(=O)O)[C@H]3COC)n2)cc2c1CN(C1CCOCC1)CC2 [Compound 53]")
"1 (yes)"

Is the recorded value of solubility at 24 h equal to or greater than 60 µg/mL for this molecule? CO[C@H]1CN(c2cccc(-c3cccc(C)c3OCc3ccc4c(c3F)CCN(C3CCOCC3)CC4)n2)CC[C@H]1C(=O)O [Compound 277]
1 (yes)

Identify whether the reported solubility at 24 h of the following molecule is 60 µg/mL or greater: CO[C@H]1CN(c2nc(-c3cccc(C)c3OCc3cc(C)c4c(c3)CCN(C3CCOCC3)CC4)cs2)CC[C@H]1C(=O)O [Compound 295]
1 (yes)

Evaluate CO[C@H]1CN(c2nc(-c3cccc(C)c3OCc3cc(F)c4c(c3)CCN(C3CCOCC3)C4)cs2)CC[C@H]1C(=O)O [Compound 172] : solubility at 24 h at minimum 60 µg/mL?
1 (yes)

###

// Metabolic stability (Qh %), % hepatic blood flow lookup, one value per entry
assay: Human liver microsome (HLM) metabolic stability assay; type: in vitro ADME; conditions: human liver microsomes

Consider the following illustrative entries.
>>> value_observed("Cc1cccc(-c2csc(N3C[C@@H]4C[C@]4(C(=O)O)C3)n2)c1OCc1ccc2c(c1C)CCN(C1CCC1)C2")
"32%"
>>> value_observed("COc1ccc(OCc2ccc3c(c2C)CCN(C2COC2)C3)c(-c2csc(N3CC[C@@]4(C(=O)O)C[C@H]4C3)n2)c1")
"<24%"

Now look at this entry.
Looking for the measured Metabolic stability (Qh %), % hepatic blood flow of Cc1cccc(-c2cccc(N3CC[C@H](C(=O)O)[C@@H]4OCCC[C@H]43)n2)c1OCc1ccc2c(c1C)CCN(C1COC1)CC2 , can you help?
32%

###

# pEC50 values compiled below
molecular target: human soluble guanylate cyclase alpha 1 and beta 1 subunits (sGC) (Homo sapiens (Human), UniProt Q02108+Q02153); experiment: sGC cellular activator assay (cGMP, HTRF), in the presence and absence of 50% human serum; conditions: CHO cells stably expressing human sGC alpha 1/beta 1, preincubated with 40 microM ODQ; cGMP by HTRF; Table 2 does not state whether with or without 50% human serum
Sequence (Q02108 whole entry partner): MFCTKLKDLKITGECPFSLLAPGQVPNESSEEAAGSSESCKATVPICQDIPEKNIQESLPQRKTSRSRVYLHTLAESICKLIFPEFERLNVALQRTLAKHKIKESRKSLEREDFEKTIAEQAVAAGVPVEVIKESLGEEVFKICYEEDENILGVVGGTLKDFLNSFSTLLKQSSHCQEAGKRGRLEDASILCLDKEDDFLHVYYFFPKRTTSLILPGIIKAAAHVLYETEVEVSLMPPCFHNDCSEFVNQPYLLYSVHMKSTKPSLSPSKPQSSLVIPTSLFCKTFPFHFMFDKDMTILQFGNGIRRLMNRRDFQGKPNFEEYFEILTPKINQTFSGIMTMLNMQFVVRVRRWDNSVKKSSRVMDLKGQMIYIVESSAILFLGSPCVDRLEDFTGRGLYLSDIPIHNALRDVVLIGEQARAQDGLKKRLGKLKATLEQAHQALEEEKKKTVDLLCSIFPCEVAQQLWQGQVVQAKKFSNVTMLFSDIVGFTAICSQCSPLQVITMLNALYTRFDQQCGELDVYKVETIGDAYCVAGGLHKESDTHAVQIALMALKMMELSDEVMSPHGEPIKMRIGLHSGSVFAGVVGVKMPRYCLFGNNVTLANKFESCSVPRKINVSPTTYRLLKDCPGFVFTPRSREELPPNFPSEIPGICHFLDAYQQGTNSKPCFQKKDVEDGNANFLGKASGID
Sequence (Q02153 whole entry): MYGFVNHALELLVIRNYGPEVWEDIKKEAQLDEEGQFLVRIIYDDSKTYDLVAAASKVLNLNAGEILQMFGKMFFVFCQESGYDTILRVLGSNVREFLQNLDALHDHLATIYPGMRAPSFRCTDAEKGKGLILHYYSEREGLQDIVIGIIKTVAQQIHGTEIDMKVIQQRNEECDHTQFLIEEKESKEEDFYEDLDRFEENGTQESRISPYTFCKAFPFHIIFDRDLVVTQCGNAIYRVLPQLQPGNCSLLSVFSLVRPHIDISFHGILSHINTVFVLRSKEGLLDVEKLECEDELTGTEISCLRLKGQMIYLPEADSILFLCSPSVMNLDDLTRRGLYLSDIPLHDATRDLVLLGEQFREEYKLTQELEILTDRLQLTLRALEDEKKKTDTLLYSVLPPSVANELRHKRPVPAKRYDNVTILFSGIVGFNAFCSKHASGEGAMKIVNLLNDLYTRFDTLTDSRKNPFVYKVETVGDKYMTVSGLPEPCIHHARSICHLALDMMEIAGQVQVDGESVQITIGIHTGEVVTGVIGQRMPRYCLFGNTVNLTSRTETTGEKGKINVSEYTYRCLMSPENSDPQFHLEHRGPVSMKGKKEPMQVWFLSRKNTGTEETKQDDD
In plain terms, pEC50 is the concentration in mol/L turned into minus its base-10 logarithm.

Here's what some known entries look like.
>>> value_observed("Cc1cc(COc2c(C)cccc2-c2csc(N3CC[C@@]4(C(=O)O)C[C@H]4C3)n2)c(C)c2c1CN(C1CCCOC1)CC2 (stereo partly shown)")
8.52
>>> value_observed("COc1ccc(OCc2ccc3c(c2C)CCN(C2COC2)C3)c(-c2csc(N3CC[C@@]4(C(=O)O)C[C@H]4C3)n2)c1")
7.40
>>> value_observed("CO[C@H]1CN(c2nc(-c3cccc(C)c3OCc3ccc4c(c3)[C@@H](C)CN(C3COC3)CC4)cs2)CC[C@H]1C(=O)O")
8.15
>>> value_observed("CO[C@@H]1CN(c2cccc(-c3cccc(C)c3OCc3ccc4c(c3C)CCN(C3COC3)C4)n2)CC[C@@H]1C(=O)O")
7.80
>>> value_observed("CO[C@@H]1CN(c2nc(-c3cccc(C)c3OCc3ccc4c(c3C)CCN(C3CCOCC3)C4)cs2)CC[C@@H]1C(=O)O")
7.68
>>> value_observed("CO[C@@H]1CN(c2cccc(-c3cccc(C)c3OCc3cc(C)c4c(c3)CCN(C3CCOCC3)CC4)n2)CC[C@@H]1C(=O)O")
9.00

Here is the next item to consider.
Consider the molecule shown here: CCOC[C@@H]1N(c2cccc(-c3cccc(C)c3OCc3cc(C)c4c(c3)CCN(C3CCOCC3)C4)n2)C[C@@H]2C[C@@]21C(=O)O What is its recorded pEC50?
6.65
